- test.name: Cmax in Sprague-Dawley rat serum at 1 mg/kg, iv measured up to 24 hrs by LC-MS-MS analysis
- Format: ADME, organism-based
- Parameters: time < 24 hrs, dose 1 mg/kg, route iv
assay.metric: Cmax
Include the unit after the number when you answer.

Sample O=C(O)c1ccc(-c2csc(N3CCC(OCc4c(-c5c(Cl)cccc5Cl)noc4C4CC4)CC3)n2)cc1 — what was its Cmax?
4340 ng/mL

----------
- study.target: UniProt:Q96RI1
- Sequence (Q96RI1 whole entry, looked up): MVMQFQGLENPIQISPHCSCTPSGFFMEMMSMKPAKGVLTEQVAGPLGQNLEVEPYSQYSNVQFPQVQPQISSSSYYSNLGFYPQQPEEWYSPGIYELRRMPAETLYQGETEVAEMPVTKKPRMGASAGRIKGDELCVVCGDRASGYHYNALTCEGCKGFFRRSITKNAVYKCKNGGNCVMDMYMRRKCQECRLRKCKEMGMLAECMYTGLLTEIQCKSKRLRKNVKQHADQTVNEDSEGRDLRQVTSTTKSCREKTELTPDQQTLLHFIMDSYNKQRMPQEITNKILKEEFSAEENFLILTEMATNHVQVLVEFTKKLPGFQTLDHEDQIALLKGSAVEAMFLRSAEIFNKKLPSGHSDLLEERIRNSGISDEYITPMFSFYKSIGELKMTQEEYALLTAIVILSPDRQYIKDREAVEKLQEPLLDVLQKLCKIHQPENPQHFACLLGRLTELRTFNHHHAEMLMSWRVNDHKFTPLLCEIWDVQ
- test.name: Agonist activity at FXR in human HepG2 cells at 3 uM relative to control
- experimental.context: filed as agonist
assay.metric: Activity (%)
Respond numerically; units are % and should not be typed.

[[record]]
compound = "O=C(O)c1ccc2nc(N3CCC(OCc4c(-c5c(Cl)cccc5Cl)noc4C4CC4)C4CC43)sc2c1 (stereo not given)"
reported_measurement = 125

[[record]]
compound = "C[C@H]1CC(OCc2c(-c3c(Cl)cccc3Cl)noc2C2CC2)C[C@H](C)N1c1nc2ccc(C(=O)O)cc2s1 (stereo not given in full)"
reported_measurement = 88

[[record]]
compound = "O=C(O)c1ccc2nc(N3C[C@@H]4C[C@H]3C[C@H]4OCc3c(-c4c(Cl)cccc4Cl)noc3C3CC3)sc2c1"
reported_measurement = 185


Sample O=C(O)c1cc(F)c2nc(N3C[C@@H]4CC[C@H]3C[C@@H]4OCc3c(-c4ccccc4OC(F)(F)F)noc3C3CC3)sc2c1 — what was its Activity?
125

Sample O=C(O)c1ccc([C@@H]2C[C@H]2c2ccc(OCc3c(-c4c(Cl)cccc4Cl)noc3C3CC3)cc2Cl)cc1 — what was its Activity?
100
